- assay-procedure: logD (measured by HPLC) (as log k')
- Type: ADME
reported-endpoint: Log k'

1) CN(C)CC/C=C1/c2ccccc2Sc2ccc(Cl)cc21 [CHLORPROTHIXENE] | 2.142
2) CN(C)CCC=C1c2ccccc2CCc2ccccc21 [AMITRIPTYLINE] | 1.214
3) CC(CN1c2ccccc2Sc2ccccc21)N(C)C (stereo unspecified) [PROMETHAZINE] | 1.512
4) CN(C)CCCN1c2ccccc2Sc2ccc(Cl)cc21 [CHLORPROMAZINE] | 1.911
5) CN1CCN(CCCN2c3ccccc3Sc3ccc(Cl)cc32)CC1 [PROCHLORPERAZINE] | 2.292
6) CN(C)CCCN1c2ccccc2Sc2ccccc21 [PROMAZINE] | 1.47
